# target desc: iNOS (Homo sapiens)
# method: abcam NOS Inhibitor Screening Kit, IC50 (fluorescence)
# Format: biochemical
# Parameters: IC50; IC50
# assay context: abcam NOS Inhibitor Screening Kit, Table C-1
# Method: The IC50 of some compounds of the invention was determined using the abcam NOS Inhibitor Screening Kit. […] Measure Fluorescence at 360 nm excitation/450 nm emission.
pIC50: −log10 of the molar value. Where a name gives a salt, the structure may show the parent alone.
Would you mind labelling by pIC50? At or over 6 is Y, under is N.

Worked cases, answers included:
NCCN(Cc1cc(Cl)ccc1Br)c1ccccc1Cl [GT-7008, hydrochloride]
N
CNCC[C@@H](Oc1cc(Cl)cc2[nH]cnc12)c1ccccc1
Y

# input Textbook exercise: given the entry N#Cc1ccc(Cl)cc1C(=O)N(CCNCC1CC1)c1ccccc1 , state whether its pIC50 is greater than or equal to 6.
# output Y

# input Textbook exercise: given the entry N#Cc1ccc(Cl)cc1CN(CCNC(CO)CO)c1ccccc1 , state whether its pIC50 is greater than or equal to 6.
# output N

# input Textbook exercise: given the entry N#Cc1ccc(Cl)cc1CN(CCN)c1ccccc1Cl [GT-7004, hydrochloride] , state whether its pIC50 is greater than or equal to 6.
# output N

---

Below, each of the molecules is paired with its reported IC50 value.
# target desc: iNOS (Homo sapiens)
# method: abcam NOS Inhibitor Screening Kit, IC50 (fluorescence)
# Assay type: biochemical
# Set-up: IC50; IC50
# assay context: abcam NOS Inhibitor Screening Kit, Table C-1
Write the answer as a number in µM, unit excluded.

Example entries and their recorded answers appear below.
CNCC[C@@H](Oc1nc(C)ccc1C#N)c1ccccc1 [GT-5002]
1.35
Cc1ccc(C#N)c(O[C@H](CCN2CC[C@@H](O)C2)c2ccccc2)n1 [GT-5017]
6.75

# input Provide the documented IC50 with iNOS (Homo sapiens) as the system for Cc1ccc(C#N)c(O[C@H](CCN2CC[C@H](O)C2)c2ccccc2)n1 [GT-5016]
# output 4.04

# input Provide the documented IC50 with iNOS (Homo sapiens) as the system for Cc1ccc(C#N)c(O[C@H](CCNCCN2CCOCC2)c2ccccc2)n1 [GT-5020]
# output 7.29

---

# target desc: iNOS (Homo sapiens)
# method: abcam NOS Inhibitor Screening Kit, IC50 (fluorescence)
# Type: biochemical
# Parameters: IC50; IC50
# assay context: abcam NOS Inhibitor Screening Kit, Table C-1
metric name: IC50 (nM)
Write the answer as a number in nM, unit excluded.

Example entries and their recorded answers appear below.
Cc1ccc(C#N)c(O[C@H](CCN)c2ccccc2)n1 [GT-5001]
1590
N#Cc1ccc(Cl)cc1C(=O)N(CCN)c1ccccc1Cl [GT-7002]
112
OCCNCC[C@@H](Oc1cc(Cl)cc2[nH]cnc12)c1ccccc1 [GT-6060]
444
CNCC[C@@H](Oc1nc(C(F)(F)F)ccc1C#N)c1ccccc1 [GT-5013]
23300
N#Cc1ccc(Cl)cc1CN(CCNCC1CC1)c1ccccc1 [GT-7020]
15500

# input For the compound shown here, O=C1c2ccccc2C(=O)N1CC[C@@H](Oc1cc(Cl)cc2[nH]ncc12)c1ccccc1 [GT-6066] , give the reported IC50.
# output 270

# input For the compound shown here, NCC[C@@H](Oc1cc(Cl)cc2[nH]ncc12)c1ccccc1 [GT-6045] , give the reported IC50.
# output 231

# input For the compound shown here, Cl.N#Cc1ccc(Cl)cc1CN(CCN)c1ccccc1 [GT-7003, hydrochloride] , give the reported IC50.
# output 64

# input For the compound shown here, NCC[C@@H](Oc1cc(Cl)cc2[nH]cnc12)c1ccccc1 [GT-6041] , give the reported IC50.
# output 156

# input For the compound shown here, N#Cc1ccc(Cl)cc1CN(CCNC1CCC(O)CC1)c1ccccc1 (single isomer, unassigned) [GT-7024] , give the reported IC50.
# output 14400

# input For the compound shown here, Cc1ccc(C#N)c(O[C@H](CCNC[C@@H](O)CO)c2ccccc2)n1 [GT-5025] , give the reported IC50.
# output 3560

# input For the compound shown here, N#Cc1ccc(Cl)cc1CN(CCNC1CCC(O)CC1)c1ccccc1 (single isomer, unassigned) [GT-7023] , give the reported IC50.
# output 10500

# input For the compound shown here, Cc1ccc(C#N)c(O[C@H](CCNCCO)c2ccccc2)n1 [GT-5014] , give the reported IC50.
# output 2170

---

# target desc: iNOS (Homo sapiens, UniProt P35228)
# method: abcam NOS Inhibitor Screening Kit, IC50 (fluorescence)
# Assay type: biochemical
# Parameters: Fold (GT-xxxx)/AZ 6b
# assay context: ratio of IC50 to AZ 6b IC50 (0.0488 μM)
# Protocol: The IC50 of some compounds of the invention was determined using the abcam NOS Inhibitor Screening Kit. […] Measure Fluorescence at 360 nm excitation/450 nm emission.
Cut-off 5 on Fold (GT-xxxx)/AZ 6b: below means true, at or above means false.

Worked cases, answers included:
CNCC[C@@H](Oc1cc(Cl)cc2[nH]ncc12)c1ccccc1 [GT-6059]
false
Cl.N#Cc1ccc(Cl)cc1CN(CCN)c1ccccc1 [GT-7003]
true
O=C1c2ccccc2C(=O)N1CC[C@@H](Oc1cc(Cl)cc2[nH]ncc12)c1ccccc1 [GT-6066]
false
OCCNCC[C@@H](Oc1cc(Cl)cc2[nH]cnc12)c1ccccc1 [GT-6060]
false
N#Cc1ccc(Cl)cc1C(=O)N(CCNCCO)c1ccccc1 [GT-7009]
true

Next molecule, please.
# input Given the entry N#Cc1ccc(Cl)cc1OC(CCN1C(=O)c2ccccc2C1=O)c1ccn2ccnc2c1 (stereo not drawn) [GT-6065] , would its reported Fold (GT-xxxx)/AZ 6b be below 5?
# output true
